Reference source: PubChem BioAssay (NCI)

# TGI annotations
# Test system: TK-10 renal
# EXPERIMENTAL DETAILS: NCI tumour cell line growth inhibition, 48 h
*1 amine or outer side, *2 acyl side, *3 side chain or, on linkers, in order; H or OH if unused. Where a SMILES comes first, the peptide text is derived from it. Bridges are numbered along the chain shown (N, C = ends). Roman numbers before positions name the chains, in order. X23 = CCCCCCCCCCCCCCC(=O)NC(CCCCN[*:2])C(=O)CN1CCCC1C(=O)[*:1]
Give the value, in units of µM, as a plain number.

Cc1ccc(C2NC(=S)N3C(c4ccc(C)cc4)NC(=S)N23)cc1 (stereo not drawn) : 26.9
COc1cc2c(cc1OCc1ccccc1)N=C[C@@H]1C[C@@H](F)CN1C2=O : 4.52
O=C(Nc1ccc2cc3ccc(NC(=O)N4CCCCCC4)cc3nc2c1)N1CCCCCC1 : 3.46

So what does the record say about TGI for CC[C@@]1(O)C(=O)OCc2c1cc1n(c2=O)Cc2cc3c(Cl)c4c(cc3nc2-1)OCO4 ? 10.6

So what does the record say about TGI for O=[N+]([O-])c1ccc(Oc2cccc(C(F)(F)F)c2)c([N+](=O)[O-])c1 ? 9.33

So what does the record say about TGI for CCOC(=O)c1c(C(F)(F)F)n([O-])c2ccc(Cl)cc2[n+]1=O ? 3.23

So what does the record say about TGI for C=CC(Br)(CBr)CCC(Br)C(C)(C)Br (stereo not drawn) ? 30.3

So what does the record say about TGI for O=C1CC(NCCCNC2CC(=O)c3c(Br)sc(Br)c32)c2c(Br)sc(Br)c21 (stereo not drawn) ? 4.61

So what does the record say about TGI for N#Cc1ccc(N2Cc3cc(Cl)ccc3OC3=C2C(=O)N(Cc2ccc(F)cc2)C3=O)cc1 ? 1.1

So what does the record say about TGI for COC(=O)c1c2c(c(C)[n+]([O-])c1C)C(=O)C=C(NCc1ccc(Br)cc1)C2=O ? 5.88

So what does the record say about TGI for c1ccc(CNCCCNCCCCNCCCNCc2ccccc2)cc1 ? 18

So what does the record say about TGI for COc1ccc2[nH]c3c(C)c4ccnc(NCCCN(C)CCCN)c4c(C)c3c2c1 ? 1.35

So what does the record say about TGI for CCc1ccc(Oc2nccc(-c3c(-c4ccc(F)cc4)ncn3C3CCNCC3)n2)cc1 ? 7.93

So what does the record say about TGI for [O-]/N=N\c1on[n+](CCc2ccccc2)c1Cc1c(/N=N/[O-])on[n+]1CCc1ccccc1 ? 56.2

So what does the record say about TGI for O=Cc1c[nH]c2ccc(-c3csc4ccccc34)cc12 ? 16.7

So what does the record say about TGI for Oc1[nH]c2ccc(Cl)cc2c1/C=c1/ccc2c(c1)N=C(c1ccc(C(F)(F)F)cc1)N=2 ? 9.75

So what does the record say about TGI for CCCCCCCCCCCCCCC(=O)NC(CCCCNC(=O)C1CCCN1C(=O)C(CCCCN)NC(=O)C(CCCCN)NC(=O)C(CCCCN)NC(=O)C(CCCNC(=N)N)NC(=O)C(CCCCN)NC(=O)C(N)C(C)C)C(=O)CN1CCCC1C(=O)NCC(=O)NC(Cc1ccccc1)C(=O)N1CCCC1C(=O)NC(CO)C(=O)NC(Cc1ccc(O)cc1)C(=O)NC(CCCCN)C(=O)NC(CC(C)C)C(=O)NC(CCCNC(=N)N)C(=O)N1CCCC1C(=O)NCC(N)=O (stereo not drawn) (I: GFPSYKLRPG-NH2 / II: H-VKRKKKP; linker I:N-II:C via X23; configuration not given here) ? 13.7

---

# TGI annotations
# System: HOP-92 NSCLC
# EXPERIMENTAL DETAILS: NCI tumour cell line growth inhibition, 48 h
Give the value, in units of µM, as a plain number.

Illustrative cases are given below, each with its answer.
COc1ccc(/C=C/c2ccnc3ccccc23)cc1 : 16.5
CCOC(=O)c1c(C(F)(F)F)n([O-])c2ccc(Cl)cc2[n+]1=O : 2.64
S=C(Nc1ccc(Cl)cc1)SC1CCCCC1 : 71.2

Then this molecule:
Value wanted: TGI (HOP-92 NSCLC) of entry CC(C)(C)OC(=O)N1CCCC1C(=O)NCCNc1ccc(NCCNC(=O)C2CCCN2C(=O)OC(C)(C)C)c2c1C(=O)c1ccccc1C2=O (centres undefined) 30.1

---

# Tested on: COLO 205 colon
# EXPERIMENTAL DETAILS: NCI tumour cell line growth inhibition, 48 h
QUANTITY MEASURED: GI50

Cc1cc(N2CCN(C)CC2)nc(N(CCNc2ccnc3cc(Cl)ccc23)Cc2ccco2)n1 : 1.88 µM
CCOC(=O)C1=C(C)NC(C)=C(C(=O)OCC)C1c1cc(Br)c(O)c(OC)c1 : 10.3 µM

So what does the record say about GI50 for Cc1cc(NS(=O)(=O)c2ccc(NC(=O)COc3ccc(-c4cc5ccccc5[nH]4)cc3)cc2)no1 ? 1.78 µM

---

# Tested on: HT29 colon
# EXPERIMENTAL DETAILS: NCI tumour cell line growth inhibition, 48 h
# GI50 annotations

COc1ccc(-c2nnc(Nc3nc(O)c(C4=c5cc(OC(F)(F)F)ccc5=NC4=O)s3)o2)cc1 : 71.4 µM

So what does the record say about GI50 for CCCCCCCCn1ccc2cc(NC(=O)Cn3cc(CN4CCC(C)CC4)nn3)ccc21 ? 1.73 µM

So what does the record say about GI50 for O=S1CCN(Cc2ccc(-c3ccc4ncnc(Nc5ccc(OCc6ccccc6)c(F)c5)c4c3)o2)CC1 ? 5.21 µM

So what does the record say about GI50 for CCOP(=O)(CCN1CCN(CCCCCOc2cc3c(cc2OC)C(=O)N2CCC[C@H]2C=N3)CC1)OCC ? 6.84 µM

So what does the record say about GI50 for CC(=O)NC1CCCN(O)C(=O)/C=C(/C)CCOC(=O)C(NC(C)=O)CCCN(O)C(=O)/C=C(/C)CCOC(=O)C(NC(C)=O)CCCN(O)C(=O)/C=C(/C)CCOC1=O.[Fe] (stereo not given) ? > 100 µM

---

# System: OVCAR-5 ovarian
# EXPERIMENTAL DETAILS: NCI tumour cell line growth inhibition, 48 h
# TGI annotations

Illustrative cases are given below, each with its answer.
N=c1oc2ccc([N+](=O)[O-])cc2cc1C(=O)Nc1ccccn1 : > 100 µM
Nc1ncnc2c1ccn2CC=C(CO)CO : > 100 µM
O=[N+]([O-])c1ccc(N/N=C/c2ccccc2O)nc1 : > 100 µM
c1csc(-c2cscc2-c2cccs2)c1 : > 100 µM
CN=c1ss/c(=N\C(=S)N(C)C)n1C1CCCCC1 : > 31.6 µM

So what does the record say about TGI for COC1=CCC2=C(CCN(C(=O)C3CC3)C2Cc2ccc(OC)c(O)c2)C1 (stereo not drawn) ? > 100 µM

So what does the record say about TGI for O=C1NC(=O)C(N2CCc3ccccc32)=C1c1ccc(Cl)cc1 ? > 25 µM

So what does the record say about TGI for Cc1ccc(O)c(-c2cc(-c3ccccc3)nc(/N=C\c3ccccc3)n2)c1 ? > 100 µM

---

# Tested on: UO-31 renal
# EXPERIMENTAL DETAILS: NCI tumour cell line growth inhibition, 48 h
QUANTITY MEASURED: TGI (µM)
Give the value, in units of µM, as a plain number.

Illustrative cases are given below, each with its answer.
COc1ccccc1N(C(C)=O)C1=C(Cl)C(=O)c2ccccc2C1=O : 2.56
Cc1cc(N2CCN(C)CC2)nc(N(CCNc2ccnc3cc(Cl)ccc23)Cc2ccco2)n1 : 11.9
Oc1ccc(NCc2cc(O)ccc2O)cc1 : 29.4

So what does the record say about TGI for Nc1ncnc2c1nc(N)n2C1OC(CO)C(O)C1O (configuration not stated) ? 2.82

So what does the record say about TGI for CCc1ccc(Oc2nccc(-c3c(-c4ccc(F)cc4)ncn3C3CCNCC3)n2)cc1 ? 9.5

---

# TGI annotations
# Test system: MDA-MB-231 breast
# EXPERIMENTAL DETAILS: NCI tumour cell line growth inhibition, 48 h

Illustrative cases are given below, each with its answer.
O=CN(O)CC(=O)O.[Ni] : > 100 µM
OCCSCc1cc(Cl)cc(Cl)c1O : > 100 µM

Value wanted: TGI (MDA-MB-231 breast) of entry O=[N+]([O-])c1ccc(/C=N/n2c(CCc3n[nH]c(=S)n3/N=C/c3ccc([N+](=O)[O-])o3)n[nH]c2=S)o1 52.4 µM

Value wanted: TGI (MDA-MB-231 breast) of entry Cc1ccc(-c2c3c(N)nc(-c4ccncc4)nc3nc3c2c(C)nn3-c2ccccc2)cc1 13.4 µM

Value wanted: TGI (MDA-MB-231 breast) of entry CNC(=O)C1CCC(=O)N1CN(C(C)=O)c1ccccc1 (stereo unspecified) > 100 µM

Value wanted: TGI (MDA-MB-231 breast) of entry O=C(/C=C/c1cc(F)ccc1F)OCCc1ccccc1 > 100 µM
